system: BCRP (ABCG2); assay: in vivo; conditions: male, rat, brain / plasma, intravenous, Unbound brain:plasma ratio (Kp, uu), BCRP knock-out rat
property.name: Kp uu

Field request: Kp uu | item: `NC(=O)c1cccc2cn(-c3ccc([C@@H]4CCCNC4)cc3)nc12`
0.15

Hey, just so you know, these numbers are from patent US20250352534A1.
